assay: chemical genetic growth profiling, strain panel (AID 1159580);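 note: tested at 20 µM; growth read once vehicle control cultures reached saturation at 30 °C; 1 = growth at the plate median or of vehicle wells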; settings: S. cerevisiae deletion strains, growth OD, locus YBL061C, strain skt5, hits give low values
Among all 5,500 compounds or so, about 2,000 (36%) were called active. Not shown: some 18% with an inconclusive outcome. Some of the results follow.
Readings of normalized growth for the listed compounds
In your answer, state the number alone without any accompanying words.

O=C(O)c1ccccc1C(=O)Nc1ccc(S(=O)(=O)Nc2nccs2)cc1 ... 0.968

Attention now shifts to the item below.
Q: Quick one: normalized growth of `O=c1cc(-c2ccccc2)oc2cc(O)cc(O)c12` ?
Ans: 0.904

====

Listing of entries alongside the reported normalized growth.
assay: chemical genetic growth profiling, strain panel (AID 1159580); conditions: S. cerevisiae deletion strains, growth OD, locus YIL125W, strain kgd1, hits give low values
Screen size: about 5,500 compounds; about 2,000 (36%) were called active. Inconclusive results (about 18%) are left out. The list shows a part of the results.
Enter the number alone.

Please review the following examples before continuing.
COC(=O)c1c(C)cc(OC(=O)c2c(C)c(Cl)c(O)c(C=O)c2O)c(C)c1O ... 1
C=C1C2CCC3(C)C(c4ccoc4)OC(=O)CC13OC1CC(OC(C)=O)C(C)(C)C(CC(=O)OC)C12C (stereo not drawn) ... 0.998
C=C1C(C2(C)C=CC(=O)C(C)(C)C2CC(=O)OC)CC[C@@]2(C)[C@H](c3ccoc3)OC(=O)C3OC132 (stereo partly drawn) ... 0.978

Next item in the queue.
Q: I have this molecule here, C=C1C2CC[C@@]3(C)[C@H](c4ccoc4)OC(=O)C[C@]13O[C@H]1CC(O)C(C)(C)C(CC(=O)OC)[C@@]21C (stereo partly drawn) , and I need its recorded normalized growth.
Ans: 1.01

====

experiment: chemical genetic growth profiling, strain panel (AID 1159580); conditions: S. cerevisiae deletion strains, growth OD, locus YGR135W, strain pre9, hits give low values
In all, about 5,500 compounds went through this assay and about 2,000 (36%) were called active. About 18% were inconclusive and are not listed. Some of the results follow.
Lab note: cut-off is 1. Strictly less in normalized growth is criterion met. Exactly 1 or more is criterion not met.

CC1(C)C(O)CC(O)C2(C)C1CC(O)C1(C)C2CCC2(C)C(c3ccoc3)OC(=O)C3OC321 (stereo not given) ... criterion not met

We next turn to a different compound, shown below.
Q: Please indicate whether the reported normalized growth of CC(C)CCCC(C)C1CCC2C3CC[C@H]4CCCC[C@]4(C)C3CC[C@]12C (stereo not given in full) is strictly below 1.
Ans: criterion met

====

experiment: chemical genetic growth profiling, strain panel (AID 1159580); conditions: S. cerevisiae deletion strains, growth OD, locus YKL068W, hits give low values
Hit rate of the full screen: of about 5,500 compounds, about 2,000 (36%) were called active. About 18% were inconclusive and are not listed. The list shows a part of the results.
recordedEndpoint: normalized growth

Q: Query: normalized growth; subject: CCCCCC1C(=O)CCC1CC(=O)O (stereo not given)
Ans: 0.981 (inactive)

Q: Can you look up the measured normalized growth of `CC(=O)N=c1sc(S(N)(=O)=O)nn1C` for me?
Ans: 1 (inactive)

Q: Which normalized growth reading was recorded for the compound CC(=O)O[C@H]1CC[C@]2(C)C3C(=O)[C@@H](OC(C)=O)[C@@]4(C)C(C[C@@H]5O[C@]6(CCC(C)CO6)[C@@H](C)[C@@H]54)C3CC[C@H]2C1 (stereo not given in full) ?
Ans: 0.997 (inactive)

Q: # lookup: normalized growth of `Cc1cc(=O)oc2c(O)c(O)ccc12`
Ans: 1 (inactive)

Q: Could you tell me which normalized growth is on file for CC1(C)C(O)CC(O)C2(C)C1CC(O)C1(C)C2CCC2(C)C(c3ccoc3)OC(=O)C3OC321 (stereo not given) ?
Ans: 1.01 (inactive)

====

assay: chemical genetic growth profiling, strain panel (AID 1159580);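 note: tested at 20 µM; growth read once vehicle control cultures reached saturation at 30 °C; 1 = growth at the plate median or of vehicle wells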; conditions: S. cerevisiae deletion strains, growth OD, locus YOR083W, strain WHI5, hits give low values
Among all 5,500 compounds or so, about 2,000 (36%) were called active. Another 18% or so got no clear call; they are omitted. Some of the results follow.
# Lookup of reported normalized growth keyed by entry
Lab note: record the figure alone, no unit after it.

Field: example entries. Status: answers known.
CCCCCC1C(=O)CCC1CC(=O)OC (stereo not given) ... 0.986
C[C@@H]1CC2C3C[C@H](F)C4=CC(=O)C=C[C@]4(C)[C@@]3(F)[C@@H](O)C[C@]2(C)[C@@]1(O)C(=O)COC(=O)C(C)(C)C (stereo not given in full) ... 0.982
COc1cc([C@H]2Oc3cc([C@H]4Oc5cc(O)cc(O)c5C(=O)[C@@H]4O)ccc3O[C@@H]2CO)ccc1O ... 1.01
O=C(Nc1ccccc1)Nc1ccccc1 ... 0.959
CCN(CCCc1ccccc1)CCCc1ccccc1 ... 0.93
CC(=O)Nc1ccccc1 ... 0.965
C[C@@H]1CC2C3CCC4=CC(=O)C=C[C@]4(C)[C@@]3(F)[C@@H](O)C[C@]2(C)[C@H]1C(=O)CO (stereo not given in full) ... 1.01
COc1c2ccccc2nc2occc12 ... 0.852
CC(CCC(=O)O)[C@H]1CCC2C3CC[C@@H]4CCCC[C@]4(C)C3CC[C@@]21C (stereo not given in full) ... 1.02
CN(C(=O)CN(CCO)CC(=O)N(C)C(C)(C)Cc1ccccc1)C(C)(C)Cc1ccccc1 ... 1

Q: Entry C[C@H](CCC(=O)O)[C@H]1CCC2C3C(CC[C@@]21C)[C@@]1(C)CC[C@@H](O)C[C@H]1C[C@H]3O (stereo not given in full) : reported normalized growth = ?
Ans: 0.971

Q: Please report the recorded normalized growth for C[C@H](CCC(=O)O)[C@H]1CCC2C3C(CC[C@@]21C)[C@@]1(C)CC[C@@H](O)C[C@H]1C[C@@H]3O (stereo not given in full) .
Ans: 0.969

Q: May I ask what normalized growth has been recorded for CC(C)CCCC(C)C1CCC2C3CC[C@H]4CCCC[C@]4(C)C3CC[C@]12C (stereo not given in full) ?
Ans: 0.991

Q: Find the recorded normalized growth belonging to `Nc1ccncc1` and report it.
Ans: 1

Q: Suppose we examine the molecule CC(CCC(=O)O)[C@H]1CCC2C3C[C@H](O)[C@@H]4C[C@H](O)CC[C@]4(C)C3CC[C@@]21C (stereo not given in full) ; what normalized growth value has been reported?
Ans: 0.948

====

test: chemical genetic growth profiling, strain panel (AID 1159580);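 note: tested at 20 µM; growth read once vehicle control cultures reached saturation at 30 °C; 1 = growth at the plate median or of vehicle wells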; conditions: S. cerevisiae deletion strains, growth OD, locus YDR159W, strain sac3
Out of some 5,500 compounds screened, about 2,000 (36%) were called active. Roughly 18% stayed inconclusive and do not appear here. No stated cut-off is given here; in the data, active means normalized growth mostly below about 0.91 (no sharp cut-off); inconclusive means no clear call, values can overlap the other calls; inactive means mostly above about 0.92. Some of the results follow.
Hello, when you answer, please use one of the following outcomes: label 1 (active), label 0 (inactive)

Use the examples below as a reference point.
COC(=O)CCC(C)[C@H]1CCC2C3C(C[C@H](O)[C@@]21C)[C@@]1(C)CC[C@@H](O)C[C@H]1C[C@H]3O (stereo partly specified) ... label 0
COc1cc(C)c(C(=O)Oc2cc(C)c(C(=O)O)c(O)c2C)c(OC)c1C ... label 0
C/C=C/C(=O)N(CC)c1ccccc1C ... label 0
O=C(Nc1ccccc1)Nc1ccccc1 ... label 0
CC(=O)Nc1ccccc1 ... label 0
COC(=O)CCC(C)C1CCC2C3CC[C@@H]4C[C@H](O)CC[C@]4(C)C3C[C@H](O)[C@]12C (stereo partly specified) ... label 1
C=Cc1c(C)c2[n-]c1=Cc1[n-]c(c(CC)c1C)C=c1[n-]c3c(c1C)C(=O)C(C(=O)[O-])C=3c1[n-]c(c(C)c1CCC(=O)[O-])C=2.[Cu] (stereo unspecified) ... label 0
O=c1cc(-c2ccccc2)oc2cc(O)c(O)c(O)c12 ... label 1
CC(C)CCCC(C)C1CCC2C3CC[C@H]4CCCC[C@]4(C)C3CC[C@]12C (stereo partly specified) ... label 0
Cc1nc2ccccn2c(=O)c1CCN1CCC(C(=O)c2ccc(F)cc2)CC1 ... label 0

Q: Would you mind telling me which call this test gave `O=c1cc(-c2ccccc2)oc2cccc(O)c12` ?
Ans: label 0

Q: Please let me know the test result on file for CSc1ccc2c(c1)N(CCC1CCCCN1C)c1ccccc1S2 (stereo unspecified) .
Ans: label 0

====

assay: chemical genetic growth profiling, strain panel (AID 1159580);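 note: tested at 20 µM; growth read once vehicle control cultures reached saturation at 30 °C; 1 = growth at the plate median or of vehicle wells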; conditions: S. cerevisiae deletion strains, growth OD, locus YPL078C, strain atp4
Screen size: about 5,500 compounds; about 2,000 (36%) were called active. About 18% were inconclusive and are not listed. No stated cut-off is given here; in the data, active means normalized growth mostly below about 0.91 (no sharp cut-off); inconclusive means no clear call, values can overlap the other calls; inactive means mostly above about 0.92. The list shows a part of the results.
Tick one outcome: active, inactive

COc1cc(S(C)=O)ccc1-c1nc2ncccc2[nH]1 (stereo not given) ... inactive
CN1CCN(C2=Nc3ccccc3Oc3ccc(Cl)cc32)CC1 ... inactive
NS(=O)(=O)c1cc2c(cc1Cl)NC(C1CC3C=CC1C3)NS2(=O)=O (stereo not given) ... inactive
O=c1cc(-c2ccccc2)oc2cc(O)c(O)c(O)c12 ... active

Q: Look up the recorded call for C[C@@H]1CC2C3CCC4=CC(=O)C=C[C@]4(C)[C@@]3(F)[C@@H](O)C[C@]2(C)[C@H]1C(=O)CO (stereo not given in full) in this test.
Ans: inactive

Q: Which outcome was assigned to `c1ccc2nc(N3CCNCC3)ccc2c1` in this test?
Ans: inactive

Q: What outcome does the record of this test show for `CCCC(CCC)C(=O)O` ?
Ans: inactive

Q: Which result was noted for this compound in the test: Nc1ccn(C2O[C@H](CO)[C@@H](O)[C@H]2O)c(=O)n1 (stereo not given in full)
Ans: inactive

Q: Given `C[C@H](N)[C@H](O)c1cccc(O)c1` , state the outcome it received in this test.
Ans: inactive

The origin of these recorded values is PubChem BioAssay AID1159580.
